Items are presented alongside their recorded growth.
Tested on: HOP-62 NSCLC
Experiment notes: NCI-60 one-dose screen, 48 h (100 = growth as untreated, 0 = no growth, -100 = all killed)
Condition notes: 10 µM unless noted
Compounds without any hit were thinned out: in the full panel of roughly 83,000, 20% have a hit.

>  <Molecule>
C=C1C(=O)O[C@H]2[C@H]1CC/C(C=Nc1c(N)cc(C(F)(F)F)cc1Br)=C\CC[C@@]1(C)O[C@@H]21

>  <Target desc>
HOP-62 NSCLC

>  <growth / %>
52

$$$$
>  <Molecule>
CCCCCCCc1n(Cc2ccc3ccccc3c2)c2ccccc2[n+]1Cc1ccc2ccccc2c1

>  <Target desc>
HOP-62 NSCLC

>  <growth / %>
-70.6

$$$$
>  <Molecule>
COc1ccc(C2=NN(c3ccc(S(N)(=O)=O)cc3)C(c3ccc(Cl)cc3)C2)c(O)c1 (stereo not given)

>  <Target desc>
HOP-62 NSCLC

>  <growth / %>
90.2

$$$$
>  <Molecule>
COCCOC(=O)COc1ccc(OC)cc1

>  <Target desc>
HOP-62 NSCLC

>  <growth / %>
111

$$$$
>  <Molecule>
Nc1ccc(C2=NN(C(=O)c3cc(-c4ccc(Cl)cc4)nc4ccccc34)C(c3ccc(Cl)cc3)C2)cc1 (stereo not given)

>  <Target desc>
HOP-62 NSCLC

>  <growth / %>
28.8

$$$$
>  <Molecule>
CCCn1c2cc(OCc3cn(-c4ccc(Br)cc4)nn3)ccc2c2ccnc(C)c21

>  <Target desc>
HOP-62 NSCLC

>  <growth / %>
63.9

$$$$
>  <Molecule>
C=C(C)[C@@H]1CC[C@]2(C(=O)NCCCO)CC[C@]3(C)[C@H](CC[C@@H]4[C@@]5(C)CCCNC(C)(C)[C@@H]5CC[C@]43C)[C@@H]12

>  <Target desc>
HOP-62 NSCLC

>  <growth / %>
89.9

$$$$
>  <Molecule>
Cc1cc(C)n(-c2nc(-c3cccs3)c(C#N)c(=O)[nH]2)n1

>  <Target desc>
HOP-62 NSCLC

>  <growth / %>
81.2

$$$$
>  <Molecule>
COc1ccccc1Nc1nnc(-c2ccc(Cl)cc2)o1

>  <Target desc>
HOP-62 NSCLC

>  <growth / %>
47.4

$$$$
>  <Molecule>
O=CN1N=C(c2ccc(Cl)cc2)CC1c1cccc(Nc2ccnc3cc(C(F)(F)F)ccc23)c1 (stereo not given)

>  <Target desc>
HOP-62 NSCLC

>  <growth / %>
67.1

$$$$
